# Tgt: T1, NHERF1 PDZ2 domain (133-300) (human, UniProt O14745 133-300)
# T1 sequence (looked up): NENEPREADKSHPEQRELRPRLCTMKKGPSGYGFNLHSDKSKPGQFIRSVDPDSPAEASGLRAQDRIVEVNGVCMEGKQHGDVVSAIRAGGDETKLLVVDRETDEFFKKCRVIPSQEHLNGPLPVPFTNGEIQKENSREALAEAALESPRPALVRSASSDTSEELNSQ
# Procedure Text: fluorescence polarisation
Ends that are not written are not given here. * marks the point of attachment. Biotin = O=C1N[C@H]2[C@H](CS[C@H]2CCCCC(=O)*)N1
Measurement Label: Ki (µM)

1) Biotin-DEEASGPERPPALLQEEWETVM [biotinylated carboxy-terminal 22-amino acid PTHR peptide] ... 7

The reported numbers originate from paper PMC5479578.
